Test system: rodent lifetime carcinogenesis bioassay, tumor incidence TD50
ASSAY_INFO: carcinogenic potency in animals, long-term in vivo studies, CPDB compilation (AID 1745844)
CONDITION_PARAMETERS: mouse; strain A/JJms; males; in feed; site: lung; lesion: several types; types named in the paper; dosed 68 weeks; study length 68 weeks
Activity calls are given as the source filed them. How the calls were made is not given here.
RECORDED_METRIC: TD50

Using the record for CC(=O)N[C@@H](CC(C)C)C(=O)N[C@@H](CC(C)C)C(=O)NC(C=O)CCCN=C(N)N (stereo partly specified) , report its TD50.
422 mg/kg/day (inactive)

----------
Test system: rodent lifetime carcinogenesis bioassay, tumor incidence TD50
ASSAY_INFO: carcinogenic potency in animals, long-term in vivo studies, CPDB compilation (AID 1745844)
CONDITION_PARAMETERS: rat; strain ACI; females; by gavage; site: kidney; lesion: adenocarcinoma, NOS + tubular-cell adenoma + tubular-cell adenocarcinoma; dosed 103 weeks; study length 104 weeks
RECORDED_METRIC: TD50 (mg/kg/day)
Numbers only, in mg/kg/day.

Using the record for ClC=C(Cl)Cl , report its TD50.
3760

----------
System: rodent lifetime carcinogenesis bioassay, tumor incidence TD50
ASSAY_INFO: carcinogenic potency in animals, long-term in vivo studies, CPDB compilation (AID 1745844)
CONDITION_PARAMETERS: rat; strain Sprague-Dawley; females; in drinking water; site: mammary gland; lesion: fibroadenoma; dosed 104 weeks; study length 120 weeks
RECORDED_METRIC: TD50 (mg/kg/day)
Give bare numbers, in mg/kg/day.

Using the record for CCO , report its TD50.
8790

----------
System: rodent lifetime carcinogenesis bioassay, tumor incidence TD50
ASSAY_INFO: carcinogenic potency in animals, long-term in vivo studies, CPDB compilation (AID 1745844)
CONDITION_PARAMETERS: mouse; strain NMRI; females; inhaled; site: Harderian gland; lesion: cystadenoma; dosed 52 weeks; study length 98 weeks
RECORDED_METRIC: TD50

Using the record for ClC#CCl , report its TD50.
3.02 mg/kg/day

----------
Tested on: rodent lifetime carcinogenesis bioassay, tumor incidence TD50
ASSAY_INFO: carcinogenic potency in animals, long-term in vivo studies, CPDB compilation (AID 1745844)
CONDITION_PARAMETERS: rat; strain Fischer 344; males; in drinking water; site: any site (literature study); lesion: several types; types named in the paper; dosed 103 weeks; study length 103 weeks
RECORDED_METRIC: TD50 (mg/kg/day)
Numbers only, in mg/kg/day.

Using the record for c1ccncc1 , report its TD50.
31

----------
System: rodent lifetime carcinogenesis bioassay, tumor incidence TD50
ASSAY_INFO: carcinogenic potency in animals, long-term in vivo studies, CPDB compilation (AID 1745844)
CONDITION_PARAMETERS: rat; strain Charles River CD1; females; in feed; site: urinary bladder; lesion: adenosquamous carcinoma; dosed 104 weeks; study length 104 weeks
RECORDED_METRIC: TD50 (mg/kg/day)
Answers are plain numbers, in mg/kg/day.

Using the record for CCOP(=O)=O.CCOP(=O)=O.CCOP(=O)=O.[Al+3] , report its TD50.
110000

----------
Tested on: rodent lifetime carcinogenesis bioassay, tumor incidence TD50
ASSAY_INFO: carcinogenic potency in animals, long-term in vivo studies, CPDB compilation (AID 1745844)
CONDITION_PARAMETERS: mouse; strain Swiss albino; males; in drinking water; site: lung; lesion: several types; types named in the paper; dosed 92 weeks; study length 92 weeks
RECORDED_METRIC: TD50

Using the record for CC(=O)NNC(=O)c1ccncc1 , report its TD50.
342 mg/kg/day

----------
Tested on: rodent lifetime carcinogenesis bioassay, tumor incidence TD50
ASSAY_INFO: carcinogenic potency in animals, long-term in vivo studies, CPDB compilation (AID 1745844)
CONDITION_PARAMETERS: mouse; strain B6C3F1; males; by gavage; site: all sites + stomach; lesion: leukemia + lymphoma + squamous-cell carcinoma; dosed 52 weeks; study length 83 weeks
RECORDED_METRIC: TD50 (mg/kg/day)
Answers are plain numbers, in mg/kg/day.

Using the record for C[C@]12CC[C@@H]3c4ccc(OC(=O)Cc5ccc(N(CCCl)CCCl)cc5)cc4CC[C@H]3[C@@H]1CC[C@@H]2OC(=O)Cc1ccc(N(CCCl)CCCl)cc1 , report its TD50.
4.1

----------
System: rodent lifetime carcinogenesis bioassay, tumor incidence TD50
ASSAY_INFO: carcinogenic potency in animals, long-term in vivo studies, CPDB compilation (AID 1745844)
CONDITION_PARAMETERS: mouse; strain SWR; females; i.p.; site: lymphoreticular system; lesion: lymphatic leukemia; dosed 104 weeks; study length 104 weeks
RECORDED_METRIC: TD50

Recorded TD50 for CC1=C[C@H]2[C@@]3(O)[C@H](C)[C@@H](O)[C@]4(O)[C@H]([C@@H]3C=C(CO)C[C@]2(O)C1=O)C4(C)C with rodent lifetime carcinogenesis bioassay, tumor incidence TD50, please?
2.21 mg/kg/day

----------
Test system: rodent lifetime carcinogenesis bioassay, tumor incidence TD50
ASSAY_INFO: carcinogenic potency in animals, long-term in vivo studies, CPDB compilation (AID 1745844)
CONDITION_PARAMETERS: mouse; strain B6C3F1; females; inhaled; site: liver; lesion: hepatocellular adenoma + hepatocellular carcinoma + neoplastic nodule; dosed 100 weeks; study length 100 weeks
RECORDED_METRIC: TD50 (mg/kg/day)
Give bare numbers, in mg/kg/day.

Using the record for CCCl , report its TD50.
7220

----------
Tested on: rodent lifetime carcinogenesis bioassay, tumor incidence TD50
ASSAY_INFO: carcinogenic potency in animals, long-term in vivo studies, CPDB compilation (AID 1745844)
CONDITION_PARAMETERS: rat; strain Fischer 344; males; by gavage; site: forestomach + kidney + palate + pancreas + preputial gland + tongue + Zymbal's gland; lesion: squamous-cell carcinoma + squamous-cell papilloma + tubule adenoma + adenoma + acinar-cell adenoma + acinar-cell adenocarcinoma + ca; dosed 94 weeks; study length 104 weeks
RECORDED_METRIC: TD50 (mg/kg/day)
Answers are plain numbers, in mg/kg/day.

Using the record for ClCC(Cl)CCl , report its TD50.
1.1

----------
Test system: rodent lifetime carcinogenesis bioassay, tumor incidence TD50
ASSAY_INFO: carcinogenic potency in animals, long-term in vivo studies, CPDB compilation (AID 1745844)
CONDITION_PARAMETERS: rat; strain Sprague-Dawley; males; by gavage; site: any site (literature study); lesion: several types; types named in the paper; dosed 59 weeks; study length 129 weeks
RECORDED_METRIC: TD50 (mg/kg/day)
Give bare numbers, in mg/kg/day.

Using the record for C=CCl , report its TD50.
16.1

----------
Tested on: rodent lifetime carcinogenesis bioassay, tumor incidence TD50
ASSAY_INFO: carcinogenic potency in animals, long-term in vivo studies, CPDB compilation (AID 1745844)
CONDITION_PARAMETERS: rat; strain Fischer; males; in feed; site: testis; lesion: interstitial-cell tumor; dosed 77 weeks; study length 98 weeks
RECORDED_METRIC: TD50 (mg/kg/day)
Answers are plain numbers, in mg/kg/day.

Using the record for O=C1NS(=O)(=O)c2ccccc21 , report its TD50.
613

----------
Could you please report measured TD50 for the items listed next?
Tested on: rodent lifetime carcinogenesis bioassay, tumor incidence TD50
ASSAY_INFO: carcinogenic potency in animals, long-term in vivo studies, CPDB compilation (AID 1745844)
CONDITION_PARAMETERS: rat; strain Charles River CD (Sprague-Dawley); females; in feed; site: liver; lesion: hepatocellular carcinoma; dosed 104 weeks; study length 104 weeks
Active and inactive are the calls of the source. No rule for the calls is given here.

STRUCTURE_STRING | TD50
CCCCOCCOCCOCc1cc2c(cc1CCC)OCO2 | 12800 mg/kg/day (inactive)
Cc1ccc(C)c(OCCCC(C)(C)C(=O)O)c1 | 504 mg/kg/day (inactive)

Then this compound:
Using the record for O=P(OC(CCl)CCl)(OC(CCl)CCl)OC(CCl)CCl , report its TD50.
721 mg/kg/day

----------
Could you please report measured TD50 for the items listed next?
System: rodent lifetime carcinogenesis bioassay, tumor incidence TD50
ASSAY_INFO: carcinogenic potency in animals, long-term in vivo studies, CPDB compilation (AID 1745844)
CONDITION_PARAMETERS: mouse; strain CDF1; females; in feed; site: liver; lesion: hepatocellular carcinoma; dosed 88 weeks; study length 88 weeks

STRUCTURE_STRING | TD50
Cc1c(N)nc(C)c2c1[nH]c1ccccc12 | 29.6 mg/kg/day

Then this molecule:
Recorded TD50 for Cc1nc(N)cc2[nH]c3ccccc3c12 with rodent lifetime carcinogenesis bioassay, tumor incidence TD50, please?
6.81 mg/kg/day

----------
System: rodent lifetime carcinogenesis bioassay, tumor incidence TD50
ASSAY_INFO: carcinogenic potency in animals, long-term in vivo studies, CPDB compilation (AID 1745844)
CONDITION_PARAMETERS: rat; strain Wistar; males; by gavage; site: kidney; lesion: papillary transitional-cell carcinoma; dosed 73 weeks; study length 73 weeks
RECORDED_METRIC: TD50

Recorded TD50 for CCN(CC)C(C)=O with rodent lifetime carcinogenesis bioassay, tumor incidence TD50, please?
8.85 mg/kg/day
